Measured values drawn from patent US12692294B2 for this set.

Target: T1, ErbB3 (Rattus norvegicus, UniProt Q62799)
T1 construct: forming the ErbB2/ErbB4 complex in cardiomyocytes and the ErbB2/ErbB3 complex in Schwann cells; endogenous in cells; host or cells: rat Schwann cells
T1 sequence (Q62799 20-1339): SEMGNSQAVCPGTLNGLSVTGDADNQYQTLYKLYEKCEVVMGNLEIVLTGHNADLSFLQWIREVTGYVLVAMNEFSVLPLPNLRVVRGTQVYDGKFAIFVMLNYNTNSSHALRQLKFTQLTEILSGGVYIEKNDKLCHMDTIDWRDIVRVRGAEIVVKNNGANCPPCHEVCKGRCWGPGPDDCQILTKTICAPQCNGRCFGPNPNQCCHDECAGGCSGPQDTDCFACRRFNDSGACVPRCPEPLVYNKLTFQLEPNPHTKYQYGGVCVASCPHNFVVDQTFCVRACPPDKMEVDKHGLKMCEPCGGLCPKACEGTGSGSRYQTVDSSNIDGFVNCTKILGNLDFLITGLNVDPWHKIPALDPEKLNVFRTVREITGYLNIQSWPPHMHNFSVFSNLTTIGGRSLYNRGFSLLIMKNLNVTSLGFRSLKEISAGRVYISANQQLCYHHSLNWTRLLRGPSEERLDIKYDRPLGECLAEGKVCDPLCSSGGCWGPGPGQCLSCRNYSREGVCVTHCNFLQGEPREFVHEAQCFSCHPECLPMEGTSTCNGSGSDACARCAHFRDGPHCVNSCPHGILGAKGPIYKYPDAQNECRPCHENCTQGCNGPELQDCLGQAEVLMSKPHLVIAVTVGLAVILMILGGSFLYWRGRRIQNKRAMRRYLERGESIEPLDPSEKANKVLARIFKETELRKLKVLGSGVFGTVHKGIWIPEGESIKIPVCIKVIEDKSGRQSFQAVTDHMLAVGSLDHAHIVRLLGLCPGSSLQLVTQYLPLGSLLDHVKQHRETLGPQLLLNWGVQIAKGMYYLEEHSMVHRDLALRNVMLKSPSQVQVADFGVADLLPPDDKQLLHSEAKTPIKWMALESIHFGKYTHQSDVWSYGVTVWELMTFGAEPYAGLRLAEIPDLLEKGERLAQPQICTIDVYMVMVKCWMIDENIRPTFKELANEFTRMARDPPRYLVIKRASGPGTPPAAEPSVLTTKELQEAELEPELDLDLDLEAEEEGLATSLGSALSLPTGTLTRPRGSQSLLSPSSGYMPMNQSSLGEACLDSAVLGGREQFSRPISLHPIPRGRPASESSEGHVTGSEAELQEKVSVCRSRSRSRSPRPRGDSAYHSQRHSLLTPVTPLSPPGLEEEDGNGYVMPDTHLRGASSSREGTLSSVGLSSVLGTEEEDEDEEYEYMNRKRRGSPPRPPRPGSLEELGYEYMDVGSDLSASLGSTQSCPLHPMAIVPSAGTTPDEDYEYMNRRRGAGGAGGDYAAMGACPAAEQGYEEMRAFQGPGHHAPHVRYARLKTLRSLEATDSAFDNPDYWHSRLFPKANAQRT
T1 sequence (P06494 23-1257 partner): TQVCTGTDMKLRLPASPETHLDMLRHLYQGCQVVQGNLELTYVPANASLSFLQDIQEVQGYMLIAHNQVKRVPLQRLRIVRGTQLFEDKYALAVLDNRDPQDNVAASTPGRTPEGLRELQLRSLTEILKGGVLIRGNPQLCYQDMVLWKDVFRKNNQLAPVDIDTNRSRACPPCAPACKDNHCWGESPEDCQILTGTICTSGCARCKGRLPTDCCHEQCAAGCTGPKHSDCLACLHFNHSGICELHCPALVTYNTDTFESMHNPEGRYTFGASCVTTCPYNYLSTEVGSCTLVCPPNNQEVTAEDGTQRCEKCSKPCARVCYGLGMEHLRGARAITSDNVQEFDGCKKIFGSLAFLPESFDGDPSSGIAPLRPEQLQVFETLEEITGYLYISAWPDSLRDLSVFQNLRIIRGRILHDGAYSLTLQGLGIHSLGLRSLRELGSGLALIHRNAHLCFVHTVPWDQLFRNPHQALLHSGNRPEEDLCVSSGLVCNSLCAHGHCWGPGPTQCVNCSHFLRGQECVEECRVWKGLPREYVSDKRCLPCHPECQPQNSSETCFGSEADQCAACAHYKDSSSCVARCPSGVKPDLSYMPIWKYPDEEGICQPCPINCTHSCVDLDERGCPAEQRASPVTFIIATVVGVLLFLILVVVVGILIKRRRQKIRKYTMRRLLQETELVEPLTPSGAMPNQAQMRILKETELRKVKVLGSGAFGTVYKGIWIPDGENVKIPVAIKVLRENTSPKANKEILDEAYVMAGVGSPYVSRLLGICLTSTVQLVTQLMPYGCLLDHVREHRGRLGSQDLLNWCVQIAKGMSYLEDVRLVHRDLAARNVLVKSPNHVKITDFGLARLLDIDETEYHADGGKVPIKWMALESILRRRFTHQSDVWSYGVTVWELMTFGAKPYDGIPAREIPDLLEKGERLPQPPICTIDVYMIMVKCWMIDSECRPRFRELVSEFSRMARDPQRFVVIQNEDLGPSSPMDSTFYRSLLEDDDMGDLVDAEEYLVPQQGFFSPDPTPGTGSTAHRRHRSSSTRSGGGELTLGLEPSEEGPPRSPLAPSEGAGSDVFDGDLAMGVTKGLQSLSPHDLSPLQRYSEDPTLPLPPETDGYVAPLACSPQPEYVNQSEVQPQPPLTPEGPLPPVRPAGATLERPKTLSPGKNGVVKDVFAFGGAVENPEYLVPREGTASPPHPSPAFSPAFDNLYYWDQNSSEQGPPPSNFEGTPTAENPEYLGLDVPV
Assay: In vitro phosphorylation of Akt in rat Schwann cells
Format: cell-based
Settings: Akt (Serine 473) phosphorylation, 15 minutes treatment, read-out: Schwann cells (SC) (ErbB3) Avg EC50
ATTRIBUTE_MEASURED: EC50 (µM)
One number for each entry, in µM.

Can you share its EC50? I mean this molecule: huNRG1(S177-F229)(NRGE1C) (E47S_D48A_F49L_M50T) 6xHis: 6xHis-tagged NRG1 variant SEQ ID NO:122; ErbB4 selective agonist without Fc of Example 3 (protein, 6xHis tag; huNRG1(S177-F229)(NRGE1C) (E47S_D48A_F49L_M50T) 6xHis) SHLVKCGEKHKSFCVNGGECFMIEGPSNPSRYLCKCPNEFTGDRCQSALTASFGGGGEGGGGAGGGGHHHHHH 10
